Some molecules, each annotated with its measured solubility kinetic.
- measurementParameters: buffer; pH 7.4; 200.0 µM

Below: 10 molecules and their reported solubility kinetic.
I have this molecule here, `COCCNC(=S)N1CCC(NC(=O)c2ccco2)CC1` , and I need its recorded solubility kinetic.
> 46.7 µg/mL

What do we get for `COc1cc(C(=O)N[C@H](C(=O)OCC(=O)NC2CCCCCC2)C(C)C)cc(OC)c1OC` ?
> 69.7 µg/mL

Another: `Cc1csc2c(=O)sc(NC(=O)c3ccc(F)cc3)nc12`
< 0.3 µg/mL

What do you get for COCC(C)NC(=O)c1cc(OC)cc(OC)c1 (stereo not drawn) ?
> 38 µg/mL

What about this molecule? Nc1ncnc2c1ncn2C1OC(CO)C(O)C1O (stereo not drawn)
> 40.1 µg/mL

Now consider `CC(=O)Nc1scc(C)c1-c1nc2ccccc2s1` .
< 0.3 µg/mL

Now try `Cc1ccccc1NC(=O)Cc1nnc(N)s1` .
> 37.2 µg/mL

Quick one: `CC1(C)CC(NC(=O)c2ccccc2F)CC(C)(C)N1`
> 41.8 µg/mL

And CC1CCCN(S(=O)(=O)c2csc(C(N)=O)c2)C1 (stereo not drawn) ?
> 43.3 µg/mL

Also `O=C(NCc1cccnc1)c1ccc(Br)s1` ?
> 44.6 µg/mL

Next:
Any idea what solubility kinetic was measured for `CC(C)(CNCc1ccccc1)NS(=O)(=O)c1ccccc1` ?
> 47.8 µg/mL

`COc1ccc(-c2csc(Nc3cccc(C)n3)n2)cc1` ?
< 0.2 µg/mL

Record: CC(C(=O)Nc1ccc2c(c1)OCO2)N(C)CC(=O)Nc1ccccc1Cl (stereo not drawn)
> 58.5 µg/mL

====

- measurementParameters: buffer; pH 7.4; 200.0 µM
Listed next: entries and their corresponding solubility kinetic.

Reference set, count: 3
Which measured solubility kinetic value corresponds to `Cc1cc(C)cc(NC(=O)Nc2ccc3ccccc3n2)c1` ?
< 0.2 µg/mL

Same for `CC(=O)NS(=O)(=O)c1ccc(NC(=S)Nc2ccccc2)cc1`
> 52.4 µg/mL

Another: `O=C(NCC(=O)N1CCCCCCC1)c1ccccc1Cl`
> 46.3 µg/mL

Others:
What value of solubility kinetic has been reported for the following compound? `CS(=O)(=O)N(CC(=O)N1CCCC1)Cc1ccccc1`
> 44.5 µg/mL

Next: CCc1ccc(CNC(=O)C2CC(=O)N(C3CCCC3)C2)cc1 (stereo not given)
> 47.2 µg/mL

====

- measurementParameters: buffer; pH 7.4; 200.0 µM
observationType: solubility kinetic

Worked examples follow.
Query: solubility kinetic; subject: `CN1CCCN(C(=O)CNC(=O)c2ccccc2F)CC1`
> 44 µg/mL

Check CC(=O)Nc1ccc(S(=O)(=O)NCC2CCCO2)cc1 (stereo not given) too.
> 44.8 µg/mL

Subsequent entry: CC(=O)Nc1ccc(NC(=O)C2(C)CC2(Cl)Cl)cc1 (stereo not given)
> 45.2 µg/mL

`CCOC(=O)C1=C(C)NC(C)=C(C(=O)OCC)C1C(=O)OCC(=O)NCc1ccccc1` ?
> 66.7 µg/mL

Param item: `CC(C)n1c(N2CCCC2)nc2c1c(=O)[nH]c(=O)n2C`
> 41.6 µg/mL

Then this compound: `COc1ccc(CCNC(=O)CCc2ccsc2)cc1OC`
> 47.9 µg/mL

Same for `COc1ccccc1CNC(=O)CCNC(=O)c1ccco1`
> 45.3 µg/mL

Thanks! And CC(=O)Nc1ccc(C(=O)COC(=O)CCN2C(=O)C3CC=CCC3C2=O)cc1 (stereo not given) ?
> 59.8 µg/mL

Now consider a different compound.
For `Nc1ccccc1C(=O)N1CCCC1` , what is its reported solubility kinetic?
> 28.5 µg/mL

Each recorded value in this set is attributed to PubChem BioAssay AID1996.
